All figures here come from paper PMC9727182.

Test: Stability of 6 compounds of SI in rat plasma
Details: rat plasma, spiked 40 ng/mL
Outcome Measure: Freeze-thaw stability (three cycles) RE (%)
Respond numerically; units are % and should not be typed.

// known answers, use as guide
• O=Cc1ccc(O)cc1 [p-HBA, p-hydroxybenzaldehyde] = 1.00
• C[C@@H]1O[C@@H](OC[C@H]2O[C@@H](Oc3c(-c4ccc(O)c(O)c4)oc4cc(O)cc(O)c4c3=O)[C@H](O)[C@@H](O)[C@@H]2O)[C@H](O)[C@H](O)[C@H]1O = -4.50
• O=C(O)[C@H]1O[C@@H](Oc2cc3oc(-c4ccc(O)cc4)cc(=O)c3c(O)c2O)[C@H](O)[C@@H](O)[C@@H]1O = 0.00

Q: Name the recorded Freeze-thaw stability (three cycles) RE for COc1cc(/C=C/CO)cc(OC)c1O[C@@H]1O[C@H](CO)[C@@H](O)[C@H](O)[C@H]1O .
A: 1.50

* * *

Assay: Multicomponent pharmacokinetics in rat plasma after i.v. safflower injection (SI)
Settings: male, Sprague-Dawley, rat, in vivo, iv, 4 ml/kg
Outcome Measure: MRT last
Be sure to follow the number with its unit.

Q: Item under review: COc1cc(/C=C/CO)cc(OC)c1O[C@@H]1O[C@H](CO)[C@@H](O)[C@H](O)[C@H]1O [SYR, syringin] . Reported MRT last?
A: 40.2 min

* * *

Assay: Multicomponent pharmacokinetics in rat plasma after i.v. safflower injection (SI)
Settings: male, Sprague-Dawley, rat, plasma, iv, 1 ml/kg
Outcome Measure: Cmax (ng/mL)
Enter your answer as a number in ng/mL; do not include the unit.

Q: What does the record list as Cmax for O=C(O)/C=C/c1ccc(O)cc1 [p-CA, p-coumaric acid] ?
A: 305

* * *

Test: Stability of 6 compounds of SI in rat plasma
Details: rat plasma, spiked 10000 ng/mL
Protocol: The LC-MS method was validated by linearity, limits of detection (LOD), limits of quantification (LOQ), precision, accuracy, extraction recovery, matrix effect and stability of the 6 ingredients in rat plasma. […] Intra- and inter-day accuracy and precision were assessed by detecting quality control (QC) samples using five replicates of rat samples at three concentration levels on one or three validation days, respectively. […]
In this section, each of the compounds is paired with its reported Long-term stability (-80℃,15 days) RE.
Field format: number, assumed %, no unit text.

- O=C(O)/C=C/c1ccc(O)cc1: 6.82

Q: Request the reported Long-term stability (-80℃,15 days) RE associated with O=C(O)[C@H]1O[C@@H](Oc2cc3oc(-c4ccc(O)cc4)cc(=O)c3c(O)c2O)[C@H](O)[C@@H](O)[C@@H]1O
A: -0.81

Q: Could you share which Long-term stability (-80℃,15 days) RE value was measured for COc1cc(/C=C/CO)cc(OC)c1O[C@@H]1O[C@H](CO)[C@@H](O)[C@H](O)[C@H]1O ?
A: 0.98

Q: Bench note: what Long-term stability (-80℃,15 days) RE did O=Cc1ccc(O)cc1 [p-HBA, p-hydroxybenzaldehyde] show?
A: 3.02

Q: What Long-term stability (-80℃,15 days) RE value was documented for this compound, C[C@@H]1O[C@@H](OC[C@H]2O[C@@H](Oc3c(-c4ccc(O)c(O)c4)oc4cc(O)cc(O)c4c3=O)[C@H](O)[C@@H](O)[C@@H]2O)[C@H](O)[C@H](O)[C@H]1O ?
A: -2.80

* * *

Test: Multicomponent pharmacokinetics in rat plasma after i.v. safflower injection (SI)
Settings: male, Sprague-Dawley, rat, plasma, iv, 2 ml/kg
Parameter: MRT last. Scope: all listed entries.
Give your result in min as a bare value.

Q: Quick one: MRT last of O=C(O)[C@H]1O[C@@H](Oc2cc3oc(-c4ccc(O)cc4)cc(=O)c3c(O)c2O)[C@H](O)[C@@H](O)[C@@H]1O ?
A: 87.6

Q: Need MRT last of O=C(O)/C=C/c1ccc(O)cc1 , thanks.
A: 16.2

Q: Given the molecule O=Cc1ccc(O)cc1 [p-HBA, p-hydroxybenzaldehyde] , what is its reported MRT last?
A: 25.8

* * *

Experiment: Multicomponent pharmacokinetics in rat plasma after i.v. safflower injection (SI)
Conditions: male, Sprague-Dawley, rat, in vivo, iv, 2 ml/kg
Outcome Measure: Vd (L/kg)
Return type: number; implicit unit L/kg.

Q: Any idea what Vd was measured for COc1cc(/C=C/CO)cc(OC)c1O[C@@H]1O[C@H](CO)[C@@H](O)[C@H](O)[C@H]1O ?
A: 0.31

* * *

Experiment: Multicomponent pharmacokinetics in rat plasma after i.v. safflower injection (SI)
Conditions: male, Sprague-Dawley, rat, in vivo, iv, 2 ml/kg
Outcome Measure: clearance (mL/min/kg)
Field format: number, assumed mL/min/kg, no unit text.

Q: Find the recorded clearance belonging to COc1cc(/C=C/CO)cc(OC)c1O[C@@H]1O[C@H](CO)[C@@H](O)[C@H](O)[C@H]1O and report it.
A: 5.67

* * *

Test: Multicomponent pharmacokinetics in rat plasma after i.v. safflower injection (SI)
Details: male, Sprague-Dawley, rat, in vivo, iv, 4 ml/kg
Outcome Measure: Cmax (ng/mL)
Write it as a number; the unit ng/mL goes unstated.

Q: // Cmax lookup, key: COc1cc(/C=C/CO)cc(OC)c1O[C@@H]1O[C@H](CO)[C@@H](O)[C@H](O)[C@H]1O
A: 925

* * *

As shown below, each of these compounds has a reported AUC(0-t) value.
Experiment: Multicomponent pharmacokinetics in rat plasma after i.v. safflower injection (SI)
Details: male, Sprague-Dawley, rat, plasma, iv, 2 ml/kg
Quick reminder: number only, in ng·h/mL, skip the unit.

Examples with answers:
* O=Cc1ccc(O)cc1 [p-HBA, p-hydroxybenzaldehyde] | 20.1
* O=C(O)/C=C/c1ccc(O)cc1 | 265

For the next question, use this compound.
Q: I would be grateful if you could share the reported AUC(0-t) for O=C(O)[C@H]1O[C@@H](Oc2cc3oc(-c4ccc(O)cc4)cc(=O)c3c(O)c2O)[C@H](O)[C@@H](O)[C@@H]1O .
A: 89.8

* * *

Assay: Multicomponent pharmacokinetics in rat plasma after i.v. safflower injection (SI)
Settings: male, Sprague-Dawley, rat, in vivo, iv, 2 ml/kg
Outcome Measure: MRT last (min)
Write the value in min as a bare number.

Q: GET /values?readout=MRT last&item= COc1cc(/C=C/CO)cc(OC)c1O[C@@H]1O[C@H](CO)[C@@H](O)[C@H](O)[C@H]1O
A: 41.4

* * *

Assay: Multicomponent pharmacokinetics in rat plasma after i.v. safflower injection (SI)
Conditions: male, Sprague-Dawley, rat, in vivo, iv, 4 ml/kg
Outcome Measure: AUC(0-t) (ng·h/mL)
Expressed in ng·h/mL, but write only the number.

Q: Data request, read-out AUC(0-t), for COc1cc(/C=C/CO)cc(OC)c1O[C@@H]1O[C@H](CO)[C@@H](O)[C@H](O)[C@H]1O [SYR, syringin]
A: 586

* * *

Assay: Multicomponent pharmacokinetics in rat plasma after i.v. safflower injection (SI)
Details: male, Sprague-Dawley, rat, plasma, iv, 4 ml/kg
Quick list: AUC(0-inf) per entry.
Return type: number; implicit unit ng·h/mL.

The examples below pair each entry with its known result.
- O=C(O)/C=C/c1ccc(O)cc1 [p-CA, p-coumaric acid]: 469
- O=C(O)[C@H]1O[C@@H](Oc2cc3oc(-c4ccc(O)cc4)cc(=O)c3c(O)c2O)[C@H](O)[C@@H](O)[C@@H]1O [SCU, scutellarin]: 358
- C[C@@H]1O[C@@H](OC[C@H]2O[C@@H](Oc3c(-c4ccc(O)c(O)c4)oc4cc(O)cc(O)c4c3=O)[C@H](O)[C@@H](O)[C@@H]2O)[C@H](O)[C@H](O)[C@H]1O [RU, rutin]: 15.1

Consider now this further molecule.
Q: Given the molecule O=Cc1ccc(O)cc1 [p-HBA, p-hydroxybenzaldehyde] , what is its reported AUC(0-inf)?
A: 44

* * *

Test: Multicomponent pharmacokinetics in rat plasma after i.v. safflower injection (SI)
Settings: male, Sprague-Dawley, rat, in vivo, iv, 2 ml/kg
Outcome Measure: half-life (min)
The reply should be a number in min, with the unit left off.

Q: What does the record list as half-life for COc1cc(/C=C/CO)cc(OC)c1O[C@@H]1O[C@H](CO)[C@@H](O)[C@H](O)[C@H]1O ?
A: 36.6

* * *

Assay: Multicomponent pharmacokinetics in rat plasma after i.v. safflower injection (SI)
Details: male, Sprague-Dawley, rat, in vivo, iv, 2 ml/kg
Outcome Measure: Cmax (ng/mL)
The figure you give is taken to be in ng/mL; do not add the unit.

Q: State the recorded Cmax for this entry: COc1cc(/C=C/CO)cc(OC)c1O[C@@H]1O[C@H](CO)[C@@H](O)[C@H](O)[C@H]1O
A: 465

* * *

Assay: Multicomponent pharmacokinetics in rat plasma after i.v. safflower injection (SI)
Settings: male, Sprague-Dawley, rat, plasma, iv, 2 ml/kg
Outcome Measure: Cmax
Kindly format the answer as number then unit.

* O=C(O)[C@H]1O[C@@H](Oc2cc3oc(-c4ccc(O)cc4)cc(=O)c3c(O)c2O)[C@H](O)[C@@H](O)[C@@H]1O | 162 ng/mL
* O=C(O)/C=C/c1ccc(O)cc1 | 715 ng/mL

Q: Cmax for O=Cc1ccc(O)cc1 [p-HBA, p-hydroxybenzaldehyde] ?
A: 44.7 ng/mL
